FYI, the data here is from patent US20150299188A1.

- Tested on: FLAP (5-lipoxygenase activating protein)
- procedure text: In vitro binding test: displacement of [3H]-7-chloro-3-(5-((3-fluoropyridin-2-yl)methoxy)-2-methylphenyl)-3,4-dihydroquinazolin-2(1H)-one from Sf9 microsome fractions
- Set-up: species or system human and mouse
- condition description: Sf9 microsome fractions expressing FLAP; 100% = radioligand binding with 10 μM sodium 3-(3-(tert-butylsulfanyl)-1-(4-chlorobenzyl)-5-isopropyl-1H-indol-2-yl)-2,2-dimethylpropanoate, 0% = DMSO; test compound concentration not given
readout: inhibitory rate (%)

                                    compound              readout  experimental_result
 0  COC(=O)c1ccc2c(c1)NC(=O)N(c1cc(OCc3c(F)cccc3F)ccc1C)C2  inhibitory rate (%)                   99
 1  Cc1cc2c(c(C)n1)CN(c1cc3c(cc1Cl)CCC(c1ncccc1F)O3)C(=O)N2 (stereo not shown)  inhibitory rate (%)                  106
 2  Cc1ccc(OCc2ncccc2F)cc1N1Cc2ccc(C(=O)Nc3ccccc3)cc2NC1=O  inhibitory rate (%)                  100
 3  O=C1Nc2c(ccnc2C(F)(F)F)CN1c1cc2c(cc1Cl)CCC(c1ncccc1F)O2 (stereo not shown)  inhibitory rate (%)                   98
 4   Cc1ccc(OCc2ccccc2Cl)cc1N1Cc2ccccc2NC1=O  inhibitory rate (%)                   70
 5  Cc1cc2c(cc1N1Cc3ccc(C(=O)NC4CC4)cc3NC1=O)OC(c1ncccc1F)CC2 (stereo not shown)  inhibitory rate (%)                   97
 6  O=C1Nc2cc(-c3ncco3)nc(C3CC3)c2CN1c1cc2c(cc1Cl)CCC(c1ncccc1F)O2 (stereo not shown)  inhibitory rate (%)                  102
 7  Cc1ccc(OCc2c(F)cccc2F)cc1N1Cc2ccc(C(=O)NS(C)(=O)=O)cc2NC1=O  inhibitory rate (%)                  102
 8  COC(=O)c1ccc2c(c1)NC(=O)N(c1cc(OCc3nccs3)ccc1C)C2  inhibitory rate (%)                  100
 9  O=c1[nH]c2ccccc2c(=O)n1-c1cc(OCc2ncccc2F)ccc1Cl  inhibitory rate (%)                  114
10  O=C(NCc1ccccn1)c1ccc(OCc2c(F)cccc2F)cc1N1Cc2ccccc2NC1=O  inhibitory rate (%)                   51
11  Cc1ccc(OCc2ncccc2F)cc1N1Cc2c(Cl)cccc2N(C)C1=O [Example 291]  inhibitory rate (%)                   94
12  Cc1ccc(OCc2ncccc2F)cc1-n1c(=O)[nH]c2cccc(F)c2c1=O  inhibitory rate (%)                   97
13  CC(C)(O)c1ccc2c(c1)NC(=O)N(c1cc(OCc3c(F)cccc3F)ccc1Cc1ccccc1)C2  inhibitory rate (%)                   98
14  Cc1ccc(OCc2ncccc2F)cc1N1Cc2cccc(Cl)c2NC1=O  inhibitory rate (%)                   93
15  O=C1Nc2cc(Br)ccc2CN1c1cc(OCc2ncccc2F)ccc1C(F)(F)F  inhibitory rate (%)                  104
16  Cc1cc2c(c(C3CC3)n1)CN(c1cc3c(cc1C)CCC(c1ncccc1F)O3)C(=O)N2 (stereo not shown)  inhibitory rate (%)                   96
17  Cc1ccc(OCc2ncccc2F)cc1N1Cc2nn(CC3CC3)cc2NC1=O  inhibitory rate (%)                  101
18  Cc1cc2c(cc1N1Cc3c(cncc3C3CC3)NC1=O)OC(c1ncccc1F)CC2 (stereo not shown)  inhibitory rate (%)                  101
19  O=C1Nc2c(C3CC3)ncc(F)c2CN1c1cc2c(cc1Cl)CCC(c1ncccc1F)O2 (stereo not shown)  inhibitory rate (%)                  106
20  COCCOc1ccc2c(=O)n(-c3cc(OCc4ncccc4F)ccc3C)c(=O)[nH]c2c1  inhibitory rate (%)                  102
21  O=C(NC1CC1)c1cc2c(c(C3CC3)n1)CN(c1cc3c(cc1Cl)CCC(c1ncccc1F)O3)C(=O)N2 (stereo not shown)  inhibitory rate (%)                  105
22  Cc1ccc(OCc2ncccc2F)cc1-n1c(=O)[nH]c2cnccc2c1=O  inhibitory rate (%)                  106
23  Cc1cc2c(cc1N1Cc3c(C(F)(F)F)ncc(/C=C/C(=O)O)c3NC1=O)OC(c1ncccc1F)CC2 (stereo not shown)  inhibitory rate (%)                  106
24  COC(=O)/C=C/c1cc2c(c(C3CC3)n1)CN(c1cc3c(cc1C)CCC(c1ncccc1F)O3)C(=O)N2 (stereo not shown)  inhibitory rate (%)                   98
25  CC(C)(O)c1ccc2c(c1)NC(=O)N(c1cc(OCc3c(F)cccc3F)ccc1C(F)(F)F)C2  inhibitory rate (%)                   84
26  O=C(c1cc2c(c(C3CC3)n1)CN(c1cc3c(cc1Cl)CCC(c1ncccc1F)O3)C(=O)N2)N1CC(O)C1 (stereo not shown)  inhibitory rate (%)                  103
27  Cc1ccc(OCc2ncc(F)cc2F)cc1N1Cc2ccccc2NC1=O  inhibitory rate (%)                   99
28      Cc1ccc(OCc2cccs2)cc1N1Cc2ccccc2NC1=O  inhibitory rate (%)                   51
29  Cc1nc(C)c2c(c1Cl)CN(c1cc3c(cc1Cl)CCC(c1ncccc1F)O3)C(=O)N2 (stereo not shown)  inhibitory rate (%)                   98
30  COCCn1c(=O)n(-c2cc3c(cc2C)CCC(c2ncccc2F)O3)c(=O)c2ccccc21 (stereo not shown)  inhibitory rate (%)                  111
